target-entity: SpHof1
assay-explanation: SPOT peptide array binding signal intensity (averaged, normalized) (arbitrary units (background-subtracted, floor 0; scale differs between SH3 domains)); higher = stronger binding of the SH3 domain to the peptide
metric-name: SPOT peptide array binding signal intensity
Reply with just the number.

Solved entries (count: 10):
{"columns": ["binder", "value-measured"],
 "data": [
  ["GATNNAPTLPKRKNP", 2.75],
  ["KNPRRQLQIPRQQPS", 126],
  ["SHRLWLYAAPKRPKT", 84],
  ["QQNRPLPQLPNRNNR", 1520],
  ["DDEDVPPQLPTRTKS", 16.8],
  ["ATKSASPTLPTRRSR", 732],
  ["TTNRGPPPLPPRANV", 15.2],
  ["DLFKPLPEPPTELGR", 1460],
  ["KLSRGRYGLPLSSRP", 88.8],
  ["RLSRLLLSLPPESFT", 252]
]}

IN: Need SPOT peptide array binding signal intensity of FFRRSELYLPNSSKA , thanks.
OUT: 65.2

IN: Need SPOT peptide array binding signal intensity of NGRRRPKFRVQLSGN , thanks.
OUT: 269

IN: Need SPOT peptide array binding signal intensity of GAGERPRLVPRPINV , thanks.
OUT: 5.5

IN: Need SPOT peptide array binding signal intensity of GQYRRTIVIPRRFFT , thanks.
OUT: 186

IN: Need SPOT peptide array binding signal intensity of SKAKRPKFLLDLQIK , thanks.
OUT: 25.2

IN: Need SPOT peptide array binding signal intensity of MPAPPPPPPPPPGAF , thanks.
OUT: 0.5

IN: Need SPOT peptide array binding signal intensity of LYKRKPILLPDPKPL , thanks.
OUT: 6.25

IN: Need SPOT peptide array binding signal intensity of GSKSGPPPRPKKPST , thanks.
OUT: 1.5

IN: Need SPOT peptide array binding signal intensity of GRSRLFPHSPLGRSS , thanks.
OUT: 68.5

IN: Need SPOT peptide array binding signal intensity of LLLLFVPDSPYDPAI , thanks.
OUT: 6.25
